System: HeLa
method: Antiproliferative activity against human HeLa cells assessed as reduction in cell viability incubated for 24 hrs under light irradiation by MTT assay
Assay type: functional, cell-based
condition: light or radiation study
measure: pIC50
Answers are plain numbers, as −log10 of the molar value.

Asked: Kindly indicate its recorded pIC50. Item: C/C=C/C1=CC2=CC3=C(C(=O)CCCCC)C(=O)O[C@@]3(C)C(=O)C2=CO1
Given back: 4.62

* * *

Test system: Proteus vulgaris
method: Antibacterial activity against Proteus vulgaris KCCM 11906 assessed as reduction in bacterial growth incubated for 12 hrs by broth micro-dilution method
Format: functional
measure: MIC (µg/mL)
Give bare numbers, in µg/mL.

Here's what some known entries look like.
| structure | MIC [µg/mL] |
| --- | --- |
| N[C@@H](Cc1ccccc1)C(=O)O | 16 |
| N[C@@H](CS)C(=O)O | 8 |
| N[C@H](Cc1ccccc1)C(=O)O | 16 |
| N[C@@H](Cc1ccc(O)cc1)C(=O)O | 32 |

Please turn your attention to the following entry.
Asked: Fill in: MIC on Proteus vulgaris, entry N[C@H](Cc1ccc(O)cc1)C(=O)O
Given back: 16
